- SYSTEM_NAME: Histamine H1 receptor (Homo sapiens, UniProt P35367)
- Sequence (P35367 whole entry): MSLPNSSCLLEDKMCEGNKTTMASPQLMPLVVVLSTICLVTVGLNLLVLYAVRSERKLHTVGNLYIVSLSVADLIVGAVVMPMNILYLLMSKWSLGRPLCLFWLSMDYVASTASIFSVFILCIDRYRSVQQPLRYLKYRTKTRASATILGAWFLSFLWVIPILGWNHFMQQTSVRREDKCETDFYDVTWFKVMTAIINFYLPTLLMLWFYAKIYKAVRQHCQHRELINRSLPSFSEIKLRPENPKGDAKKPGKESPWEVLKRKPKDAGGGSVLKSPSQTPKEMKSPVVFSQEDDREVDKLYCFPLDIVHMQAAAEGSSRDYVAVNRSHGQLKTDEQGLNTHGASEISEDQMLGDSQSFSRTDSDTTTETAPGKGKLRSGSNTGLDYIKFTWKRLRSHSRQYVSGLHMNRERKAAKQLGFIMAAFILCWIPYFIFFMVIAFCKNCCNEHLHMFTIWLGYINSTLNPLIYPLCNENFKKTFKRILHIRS
- ASSAY_COMMENT: Antagonistic activity against histamine H1 receptor
- Type: functional
pIC50: −log10 of the molar value.
Classification field: satisfied = pIC50 at or over 6; not satisfied = pIC50 under 6.

>  <COMPOUND>
COc1cc(C(=O)N2CCC(CCN3CCC(C(=O)c4nc5ccccc5[nH]4)CC3)(c3ccc(Cl)c(Cl)c3)C2)cc(OC)c1OC (stereo not given)

>  <CLASS_NAME>
satisfied

$$$$
>  <COMPOUND>
CCOCCn1c(C(=O)C2CCN(CCC3(c4ccccc4)CCN(C(=O)c4cc(OC)c(OC)c(OC)c4)C3)CC2)nc2ccccc21 (stereo not given)

>  <CLASS_NAME>
satisfied

$$$$
>  <COMPOUND>
COc1cc(C(=O)N2CCC(CCN3CCC(C(=O)c4nc5ccccc5n4Cc4ccc(F)cc4)CC3)(c3ccc(Cl)c(Cl)c3)C2)cc(OC)c1OC (stereo not given)

>  <CLASS_NAME>
satisfied

$$$$
>  <COMPOUND>
COc1cc(C(=O)N2CCC(CCN3CCC(C(=O)c4nc5ccccc5n4Cc4ccc(F)cc4)CC3)(c3ccc4c(c3)OCO4)C2)cc(OC)c1OC (stereo not given)

>  <CLASS_NAME>
satisfied

$$$$
>  <COMPOUND>
COc1ccc(C2(CCN3CCC(C(=O)c4nc5ccccc5[nH]4)CC3)CCN(C(=O)c3cc(OC)c(OC)c(OC)c3)C2)cc1OC (stereo not given)

>  <CLASS_NAME>
not satisfied

$$$$
